Each entry below carries its recorded pIC50.
target: DRB4*0101 (Homo sapiens, UniProt P01903+P13762, G164S); construct: expressed in transfected cells; host or cells: transfected fibroblasts L257.6; assay: Class II peptide-binding assay DRB4*0101 (DRw53)
pIC50: −log10 of the molar value. Ends that are not written are not given here.
Assay metric: pIC50

sequence_code=YSGPLKAEIAQRLEDV assay_metric=pIC50 relation_sign== measured=5.35
sequence_code=DTGRKLFRVYSNFLR assay_metric=pIC50 relation_sign== measured=5.95
sequence_code=FNNFTVSFWLRVPKVSASHLEQY assay_metric=pIC50 relation_sign== measured=5.78
sequence_code=DIEKKIAKMEKASSVFNVVNS assay_metric=pIC50 relation_sign=< measured=4.70
sequence_code=YKTIAYDEEARR assay_metric=pIC50 relation_sign=< measured=4.70
